Sourced from patent US7960561B2

Counter-ions that a name gives are not always drawn.
# melting point per entry

Ask | Quick one: melting point of Clc1cccc(Nc2nc3ccccc3[nH]2)c1 (as salt: hydrochloride) [Example 5, N-(Benzimidazol-2-yl)-3-chloroaniline] ?
Reply | 252 to 257 °C

Ask | Now the same for FC(F)(F)c1cc(Nc2nc3ccccc3[nH]2)ccc1Cl (as salt: hydrochloride) [Example 2]
Reply | 255 to 260 °C

Ask | Now the same for FC(F)(F)c1cc(Nc2nc3ccccc3[nH]2)ccc1Br (as salt: hydrochloride) [Example 16]
Reply | 262 to 264 °C

Ask | Now the same for Fc1ccc(Nc2nc3ccccc3[nH]2)cc1 (as salt: hydrochloride) [Example 7, N-(Benzimidazol-2-yl)-4-fluoroaniline]
Reply | 215 to 216 °C

Ask | Now the same for FC(F)(F)Oc1ccc(Nc2nc3ccccc3[nH]2)cc1 (as salt: hydrochloride) [Example 6]
Reply | 250 to 251 °C

Ask | Now the same for Clc1cc(Cl)cc(Nc2nc3ccccc3[nH]2)c1 (as salt: hydrochloride) [Example 15]
Reply | 317 to 318 °C

Ask | Now the same for FC(F)(F)c1cc(Nc2nc3ccccc3[nH]2)cc(C(F)(F)F)c1 (as salt: hydrochloride) [Example 13]
Reply | 245 to 246 °C

Ask | Now the same for Cc1ccc(Nc2nc3ccccc3[nH]2)cc1C(F)(F)F (as salt: hydrochloride) [Example 17]
Reply | > 265 °C

Ask | Now the same for CN(c1ccc(Cl)c(Cl)c1)c1nc2ccccc2[nH]1 (as salt: hydrochloride) [Example 22]
Reply | > 275 °C
